assay.method.text: solubility in water and simulated intestinal media
Format: physicochemical
test.context: FaSSIF pH 6.5; read-out: Solubility in FaSSIF
solubility overview
Respond numerically; units are µg/mL and should not be typed.

CC(C)[C@H](N)C(=O)OCC[C@H](NC(=O)[C@@H]1SCCN1S(=O)(=O)c1ccc(-c2ccccc2)cc1)c1ccc(F)cc1	70

// query solubility lookup needed for O=C(N[C@@H](CCO)c1ccc(F)cc1)[C@@H]1SCCN1S(=O)(=O)c1ccc(-c2ccccc2)cc1 (stereo in doubt) , thanks.
// result 0.4

---

assay.method.text: solubility in water and simulated intestinal media
Assay type: physicochemical
test.context: water; read-out: Solubility in water
solubility overview
Respond numerically; units are µg/mL and should not be typed.

O=C(N[C@@H](CCO)c1ccc(F)cc1)[C@@H]1SCCN1S(=O)(=O)c1ccc(-c2ccccc2)cc1 (stereo in doubt)	0.4

In the following, a different molecule is considered.
// query solubility lookup needed for CC(C)[C@H](N)C(=O)OCC[C@H](NC(=O)[C@@H]1SCCN1S(=O)(=O)c1ccc(-c2ccccc2)cc1)c1ccc(F)cc1 , thanks.
// result 380
